Data origin: ChEMBL document CHEMBL4152343

- Procedure summary: Metabolic stability in human liver microsomes assessed as parent compound remaining after 10 mins by LC-MS/MS analysis
- Type: ADME, microsome
- Experimental context: read-out: Stability
Endpoint label: remaining at 10 min (%)

Reference set (2 entries):
{"Compound smiles": "C[C@@H]1CN(c2cccc3c2C[C@H](CN(C)[C@H]2CCCc4cccnc42)NC3)C[C@H](C)N1", "remaining at 10 min [%]": 100}
{"Compound smiles": "c1cnc2c(c1)CCC[C@@H]2N(CC1CC1)C[C@H]1Cc2c(cccc2N2CCNCC2)CN1", "remaining at 10 min [%]": 82.1}

[I] CN(C[C@H]1Cc2c(cccc2N2CCN(C3COC3)CC2)CN1)[C@H]1CCCc2cccnc21
[II] CCN1CCN(c2cccc3c2C[C@H](CN(C)[C@H]2CCCc4cccnc42)NC3)CC1
Task: Choose between I and II : whose measured remaining at 10 min value is numerically larger? Answer format: the label of the selected item.
Result: I

---

- Target system: Voltage-gated inwardly rectifying potassium channel KCNH2 (Homo sapiens, UniProt Q12809)
- Sequence (Q12809 whole entry): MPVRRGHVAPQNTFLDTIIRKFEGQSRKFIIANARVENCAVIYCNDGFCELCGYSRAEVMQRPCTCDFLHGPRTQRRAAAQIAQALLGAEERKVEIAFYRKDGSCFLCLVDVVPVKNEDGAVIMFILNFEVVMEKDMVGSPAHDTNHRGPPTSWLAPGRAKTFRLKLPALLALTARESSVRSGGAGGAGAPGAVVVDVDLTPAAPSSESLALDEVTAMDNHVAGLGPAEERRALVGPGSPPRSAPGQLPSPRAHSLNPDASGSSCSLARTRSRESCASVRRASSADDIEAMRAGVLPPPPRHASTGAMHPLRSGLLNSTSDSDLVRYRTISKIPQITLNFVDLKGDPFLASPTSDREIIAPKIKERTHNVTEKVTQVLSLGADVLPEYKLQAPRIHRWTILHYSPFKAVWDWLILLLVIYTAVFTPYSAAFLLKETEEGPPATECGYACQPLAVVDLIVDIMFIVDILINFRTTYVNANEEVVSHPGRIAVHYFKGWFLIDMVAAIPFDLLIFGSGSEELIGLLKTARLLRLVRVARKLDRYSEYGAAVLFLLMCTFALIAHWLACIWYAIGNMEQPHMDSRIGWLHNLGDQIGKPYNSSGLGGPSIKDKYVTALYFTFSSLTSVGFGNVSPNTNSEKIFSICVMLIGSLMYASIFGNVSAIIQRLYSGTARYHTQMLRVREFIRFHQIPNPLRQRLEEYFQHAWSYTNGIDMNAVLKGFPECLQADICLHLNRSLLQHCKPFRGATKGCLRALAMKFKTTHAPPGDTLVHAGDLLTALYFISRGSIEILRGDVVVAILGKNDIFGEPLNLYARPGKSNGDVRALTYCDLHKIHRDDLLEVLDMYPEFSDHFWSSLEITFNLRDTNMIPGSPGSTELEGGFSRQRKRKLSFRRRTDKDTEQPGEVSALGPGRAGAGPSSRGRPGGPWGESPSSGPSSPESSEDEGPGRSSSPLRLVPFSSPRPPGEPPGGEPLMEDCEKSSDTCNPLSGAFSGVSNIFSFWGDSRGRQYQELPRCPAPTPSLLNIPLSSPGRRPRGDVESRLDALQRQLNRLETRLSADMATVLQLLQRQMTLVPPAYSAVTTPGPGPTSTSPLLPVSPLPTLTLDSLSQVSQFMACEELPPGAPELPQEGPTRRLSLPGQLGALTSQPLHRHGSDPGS
- Procedure summary: Displacement of [3H]astemizole from human ERG expressed in HEK cell membranes
Endpoint label: pIC50
FYI, pIC50 means -log10 of a concentration in mol per litre.

Task: Look up and report pIC50, with Voltage-gated inwardly rectifying potassium channel KCNH2 (Homo sapiens, UniProt Q12809) as system, for CN(C[C@H]1Cc2c(cccc2N2CCNCC2)CN1)[C@H]1CCCc2cccnc21
Result: 4.69

---

- Procedure summary: Metabolic stability in human liver microsomes assessed as parent compound remaining after 10 mins by LC-MS/MS analysis
- Assay type: ADME, microsome
- Experimental context: read-out: Stability
Endpoint label: remaining at 10 min (%)

{"Compound smiles": "CN1CCN(c2cccc3c2C[C@H](CN2CCC[C@H]4CCc5cccnc5[C@H]42)NC3)CC1", "Measure unit": "%", "remaining at 10 min": 67.8}
{"Compound smiles": "CN(C[C@H]1Cc2c(cccc2N2CCN(Cc3ccccn3)CC2)CN1)[C@H]1CCCc2cccnc21", "Measure unit": "%", "remaining at 10 min": 4.2}
{"Compound smiles": "CN(C[C@H]1Cc2c(cccc2N2CCNCC2)CN1)[C@H]1CCCc2cccnc21", "Measure unit": "%", "remaining at 10 min": 99.7}
{"Compound smiles": "CN(C[C@H]1Cc2c(cccc2N2CCN(C3CC3)CC2)CN1)[C@H]1CCCc2cccnc21", "Measure unit": "%", "remaining at 10 min": 15.5}
{"Compound smiles": "CN(C[C@@H]1Cc2c(cccc2N2CCNCC2)CN1)[C@H]1CCCc2cccnc21", "Measure unit": "%", "remaining at 10 min": 94.2}
{"Compound smiles": "Cc1cnc2c(c1)CCC[C@@H]2N(C)C[C@H]1Cc2c(cccc2N2CCNCC2)CN1", "Measure unit": "%", "remaining at 10 min": 100}
{"Compound smiles": "Cc1cccnc1CN(C)C[C@H]1Cc2c(cccc2N2CCNCC2)CN1", "Measure unit": "%", "remaining at 10 min": 69.2}

[I] CCCN(C[C@H]1Cc2c(cccc2N2CCNCC2)CN1)[C@H]1CCCc2cccnc21
[II] CN(C[C@H]1Cc2c(cccc2N2CCN3CCC[C@H]3C2)CN1)[C@H]1CCCc2cccnc21
Task: // pick min by remaining at 10 min: I , II Answer format: the label of the selected item.
Result: II
(II: 36.6%, I: 100%)

---

- Procedure summary: Permeability of compound at pH 7.4 by PAMPA
- Type: ADME
- Experimental context: read-out: permeability
Endpoint label: Papp (×10⁻⁶ cm/s)

[P] CN1Cc2cccc(N3CCNCC3)c2C[C@@H]1CN(C)[C@H]1CCCc2cccnc21
[Q] CCN1CCN(c2cccc3c2C[C@H](CN(C)[C@H]2CCCc4cccnc42)NC3)CC1
[R] CN(C[C@H]1Cc2c(cccc2N2CCN(C3COC3)CC2)CN1)[C@H]1CCCc2cccnc21
[S] COCCN(C[C@H]1Cc2c(cccc2N2CCNCC2)CN1)[C@H]1CCCc2cccnc21
[T] c1cnc2c(c1)CCC[C@@H]2N(CC1CC1)C[C@H]1Cc2c(cccc2N2CCNCC2)CN1
Task: Exam item: list the entries in increasing order of Papp. Dear reader, please state the labels in the requested order.
Result: S, P, T, Q, R
(S: 0.1 ×10⁻⁶ cm/s, P: 0.3 ×10⁻⁶ cm/s, T: 8.7 ×10⁻⁶ cm/s, Q: 20.5 ×10⁻⁶ cm/s, R: 72.5 ×10⁻⁶ cm/s)

[1] CN1CCN(c2cccc3c2C[C@H](CN(C)[C@H]2CCCc4cccnc42)NC3)CC1
[2] CN(C[C@H]1Cc2c(cccc2N2CCN(C3CC3)CC2)CN1)[C@H]1CCCc2cccnc21
Task: Choose between 1 and 2 : whose measured Papp value is numerically larger? Answer format: the label of the selected item.
Result: 1
(1: 99.6 ×10⁻⁶ cm/s, 2: 26.5 ×10⁻⁶ cm/s)

---

- Procedure summary: Metabolic stability in mouse liver microsomes assessed as parent compound remaining after 10 mins by LC-MS/MS analysis
- Type: ADME, microsome
- Experimental context: read-out: Stability
Endpoint label: remaining at 10 min (%)

Reference set (7 entries):
{"Compound smiles": "C[C@@H]1CN(c2cccc3c2C[C@H](CN(C)[C@H]2CCCc4cccnc42)NC3)C[C@H](C)N1C", "Measure unit": "%", "remaining at 10 min": 39.6}
{"Compound smiles": "C[C@@H]1CN(c2cccc3c2C[C@H](CN(C)[C@H]2CCCc4cccnc42)NC3)C[C@H](C)N1", "Measure unit": "%", "remaining at 10 min": 85.6}
{"Compound smiles": "CN(C[C@H]1Cc2c(cccc2N2C[C@@H]3C[C@H]2CN3)CN1)[C@H]1CCCc2cccnc21", "Measure unit": "%", "remaining at 10 min": 36.3}
{"Compound smiles": "CN(C[C@@H]1Cc2c(cccc2N2CCNCC2)CN1)[C@H]1CCCc2cccnc21", "Measure unit": "%", "remaining at 10 min": 54.6}
{"Compound smiles": "CN(C[C@H]1Cc2c(cccc2N2CCN3CCC[C@@H]3C2)CN1)[C@H]1CCCc2cccnc21", "Measure unit": "%", "remaining at 10 min": 36.7}
{"Compound smiles": "CN(C[C@H]1Cc2c(cccc2N2C[C@H]3C[C@@H]2CN3)CN1)[C@H]1CCCc2cccnc21", "Measure unit": "%", "remaining at 10 min": 95.9}
{"Compound smiles": "CN(C[C@H]1Cc2c(cccc2N2CCN(C3CC3)CC2)CN1)[C@H]1CCCc2cccnc21", "Measure unit": "%", "remaining at 10 min": 7}

[P] c1cnc2c(c1)CCC[C@@H]2N(CC1CCCCC1)C[C@H]1Cc2c(cccc2N2CCNCC2)CN1
[Q] CC(C)N1CCN(c2cccc3c2C[C@H](CN(C)[C@H]2CCCc4cccnc42)NC3)CC1
Task: Choose between P and Q : whose measured remaining at 10 min value is numerically larger? Answer format: the label of the selected item.
Result: P
(P: 85.6%, Q: 15.1%)

---

- Procedure summary: Metabolic stability in human liver microsomes assessed as parent compound remaining after 10 mins by LC-MS/MS analysis
- Type: ADME, microsome
- Experimental context: read-out: Stability
Endpoint label: remaining at 10 min (%)

{"Compound smiles": "CN(C[C@H]1Cc2c(cccc2N2C[C@H]3C[C@@H]2CN3)CN1)[C@H]1CCCc2cccnc21", "Measure unit": "%", "remaining at 10 min": 100}
{"Compound smiles": "CN(C[C@H]1Cc2c(cccc2N2C[C@@H]3C[C@H]2CN3)CN1)[C@H]1CCCc2cccnc21", "Measure unit": "%", "remaining at 10 min": 100}
{"Compound smiles": "CN1CCN(c2cccc3c2C[C@H](CN(C)[C@H]2CCCc4cccnc42)N(C)C3)CC1", "Measure unit": "%", "remaining at 10 min": 83.3}
{"Compound smiles": "CN(C[C@H]1Cc2c(cccc2N2CCN(c3cccc(C(F)(F)F)c3)CC2)CN1)[C@H]1CCCc2cccnc21", "Measure unit": "%", "remaining at 10 min": 90.3}

---

- Target system: UniProt:P61073
- Sequence (P61073 whole entry): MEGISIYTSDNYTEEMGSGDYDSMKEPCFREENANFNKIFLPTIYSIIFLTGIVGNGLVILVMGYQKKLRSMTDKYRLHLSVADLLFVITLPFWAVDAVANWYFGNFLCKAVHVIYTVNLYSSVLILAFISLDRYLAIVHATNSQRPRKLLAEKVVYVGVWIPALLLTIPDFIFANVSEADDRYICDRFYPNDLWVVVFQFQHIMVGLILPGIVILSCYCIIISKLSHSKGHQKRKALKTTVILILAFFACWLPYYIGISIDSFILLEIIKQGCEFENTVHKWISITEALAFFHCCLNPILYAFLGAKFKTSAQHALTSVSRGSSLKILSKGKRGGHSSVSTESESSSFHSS
- Procedure summary: Antagonist activity at CXCR4 in human CCRF-CEM cells assessed as inhibition of SDF-1alpha-induced calcium release preincubated for 25 mins followed by SDF-1alpha stimulation and measured for 90 secs by calcium flux assay
pIC50: −log10 of the molar value.
Endpoint label: pIC50

Reference set (5 entries):
{"Compound smiles": "CN(C[C@H]1Cc2c(cccc2N2CCNCC2)CN1)[C@H]1CCCc2cccnc21", "Target system": "UniProt:P61073", "Endpoint label": "pIC50", "Experimental result": 8.22}
{"Compound smiles": "CN(C[C@@H]1Cc2c(cccc2N2CCNCC2)CN1)[C@H]1CCCc2cccnc21", "Target system": "UniProt:P61073", "Endpoint label": "pIC50", "Experimental result": 6.50}
{"Compound smiles": "CN(C[C@H]1Cc2c(cccc2N2CCN(c3ccccn3)CC2)CN1)[C@H]1CCCc2cccnc21", "Target system": "UniProt:P61073", "Endpoint label": "pIC50", "Experimental result": 7.75}
{"Compound smiles": "CN1CCN(c2cccc3c2C[C@H](CN(C)[C@H]2CCCc4cccnc42)N(C)C3)CC1", "Target system": "UniProt:P61073", "Endpoint label": "pIC50", "Experimental result": 6.77}
{"Compound smiles": "CN(C[C@H]1Cc2c(cccc2N2CCN3CCC[C@@H]3C2)CN1)[C@H]1CCCc2cccnc21", "Target system": "UniProt:P61073", "Endpoint label": "pIC50", "Experimental result": 8.44}

[1] CCN1CCN(c2cccc3c2C[C@H](CN(C)[C@H]2CCCc4cccnc42)NC3)CC1
[2] OCCN(C[C@H]1Cc2c(cccc2N2CCNCC2)CN1)[C@H]1CCCc2cccnc21
[3] CC(C)N(C[C@H]1Cc2c(cccc2N2CCNCC2)CN1)[C@H]1CCCc2cccnc21
Task: Endpoint returns the given compounds ordered by ascending pIC50. Dear reader, please state the labels in the requested order.
Result: 3, 2, 1
(3: 6.44, 2: 6.71, 1: 7.86)
